Test system: P-gp and BCRP
Test: Efflux in wildtype Caco-2 cells
Type: in vitro ADME
Conditions: human
Quantity Name: efflux ratio at 2 μM

Ask: So what does the record say about efflux ratio at 2 μM for CC(O)c1cc(C(=O)N[C@@H](C)Cn2ccc(-c3ccc(C#N)c(Cl)c3)n2)[nH]n1 (stereo partly shown) [Darolutamide, darolutamide] ?
Reply: 98

* * *

Molecular target: OAT3 (Homo sapiens, UniProt Q8TCC7)
Sequence (Q8TCC7 whole entry): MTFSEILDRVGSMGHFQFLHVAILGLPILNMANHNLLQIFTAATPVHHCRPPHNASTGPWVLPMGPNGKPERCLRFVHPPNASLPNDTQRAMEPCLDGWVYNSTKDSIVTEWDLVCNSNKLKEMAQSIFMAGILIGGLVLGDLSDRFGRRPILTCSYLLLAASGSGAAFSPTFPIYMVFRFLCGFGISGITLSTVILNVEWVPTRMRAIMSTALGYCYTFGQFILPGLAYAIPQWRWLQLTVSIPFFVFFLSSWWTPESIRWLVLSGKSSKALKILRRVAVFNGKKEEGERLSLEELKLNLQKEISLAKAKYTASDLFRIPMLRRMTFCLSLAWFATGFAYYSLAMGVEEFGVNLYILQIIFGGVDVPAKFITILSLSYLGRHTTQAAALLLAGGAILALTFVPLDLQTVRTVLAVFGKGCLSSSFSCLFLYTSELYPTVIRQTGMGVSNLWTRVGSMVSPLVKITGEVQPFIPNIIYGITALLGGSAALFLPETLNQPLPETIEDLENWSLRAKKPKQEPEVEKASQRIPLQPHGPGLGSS
Assay: OAT3 uptake inhibition in transfected HEK cells
Format: in vitro ADME
Quantity Name: IC50 (µM)
Record the value in µM, omitting the unit from your answer.

Ask: What does the data say about its IC50? Entry: CC(O)c1cc(C(=O)N[C@@H](C)Cn2ccc(-c3ccc(C#N)c(Cl)c3)n2)[nH]n1 (stereo partly shown) [Darolutamide, darolutamide]
Reply: 4.5

* * *

Target: MATE2-K (Homo sapiens)
Sequence (Q86VL8 1-566 isoform Q86VL8-3): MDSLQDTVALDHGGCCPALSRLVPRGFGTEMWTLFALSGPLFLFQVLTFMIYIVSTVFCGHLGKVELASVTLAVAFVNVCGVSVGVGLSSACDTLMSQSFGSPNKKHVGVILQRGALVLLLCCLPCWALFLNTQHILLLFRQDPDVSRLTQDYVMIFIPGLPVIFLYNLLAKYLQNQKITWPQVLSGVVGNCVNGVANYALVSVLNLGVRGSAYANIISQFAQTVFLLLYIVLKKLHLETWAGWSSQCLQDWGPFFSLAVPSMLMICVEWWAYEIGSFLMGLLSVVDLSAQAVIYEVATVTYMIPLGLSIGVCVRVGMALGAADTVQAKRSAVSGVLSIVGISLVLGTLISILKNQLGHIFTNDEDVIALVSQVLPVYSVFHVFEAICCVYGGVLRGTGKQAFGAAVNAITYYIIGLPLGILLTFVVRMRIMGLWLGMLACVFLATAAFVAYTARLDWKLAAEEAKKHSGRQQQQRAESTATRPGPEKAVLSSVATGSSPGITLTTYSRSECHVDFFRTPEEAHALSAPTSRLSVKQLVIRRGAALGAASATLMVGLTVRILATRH
Test: MATE2-K inhibition in transfected HEK cells
Format: in vitro ADME
Quantity Name: IC50

Ask: Which IC50 reading was recorded for the compound CC(O)c1cc(C(=O)N[C@@H](C)Cn2ccc(-c3ccc(C#N)c(Cl)c3)n2)[nH]n1 (stereo partly shown) [Darolutamide, darolutamide] ?
Reply: 9.5 µM

* * *

Target: CYP2E1 (Homo sapiens)
Sequence (P05181 whole entry): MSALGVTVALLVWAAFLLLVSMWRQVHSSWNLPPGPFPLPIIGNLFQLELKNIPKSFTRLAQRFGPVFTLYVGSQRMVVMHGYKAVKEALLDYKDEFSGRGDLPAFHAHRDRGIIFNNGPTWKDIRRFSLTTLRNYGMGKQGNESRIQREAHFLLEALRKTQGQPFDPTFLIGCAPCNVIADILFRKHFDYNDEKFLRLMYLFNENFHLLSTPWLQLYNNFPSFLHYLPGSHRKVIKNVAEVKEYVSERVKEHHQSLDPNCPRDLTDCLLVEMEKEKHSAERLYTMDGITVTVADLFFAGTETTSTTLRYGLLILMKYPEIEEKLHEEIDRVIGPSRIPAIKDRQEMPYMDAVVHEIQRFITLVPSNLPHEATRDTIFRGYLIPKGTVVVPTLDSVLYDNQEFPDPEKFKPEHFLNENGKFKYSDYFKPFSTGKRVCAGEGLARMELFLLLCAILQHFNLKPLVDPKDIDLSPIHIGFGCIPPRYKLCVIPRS
Experiment: CYP2E1 inhibition in human liver microsomes
Type: in vitro ADME
Conditions: read-out: IC50, CYP2E1; human liver microsomes; substrate chlorzoxazone
pIC50: −log10 of the molar value.
Recorded pIC50, one value per entry.

Take a look at these entries with their results.
[
  {
    "Compound": "C[C@H](O)c1cc(C(=O)N[C@@H](C)Cn2ccc(-c3ccc(C#N)c(Cl)c3)n2)n[nH]1 [(S,S)-darolutamide]",
    "pIC50": "< 4.30"
  },
  {
    "Compound": "C[C@@H](Cn1ccc(-c2ccc(C#N)c(Cl)c2)n1)NC(=O)c1cc([C@@H](C)O)[nH]n1 [(S,R)-darolutamide]",
    "pIC50": "< 4.30"
  }
]

Please look at the following compound next.
Ask: Value lookup for pIC50; key = CC(=O)c1cc(C(=O)N[C@@H](C)Cn2ccc(-c3ccc(C#N)c(Cl)c3)n2)[nH]n1 [Keto-darolutamide, keto-darolutamide]
Reply: < 4.00

* * *

The reader will find reported IC50 values listed item by item below.
Biological target: CYP2B6 (Homo sapiens)
Sequence (P20813 1-491): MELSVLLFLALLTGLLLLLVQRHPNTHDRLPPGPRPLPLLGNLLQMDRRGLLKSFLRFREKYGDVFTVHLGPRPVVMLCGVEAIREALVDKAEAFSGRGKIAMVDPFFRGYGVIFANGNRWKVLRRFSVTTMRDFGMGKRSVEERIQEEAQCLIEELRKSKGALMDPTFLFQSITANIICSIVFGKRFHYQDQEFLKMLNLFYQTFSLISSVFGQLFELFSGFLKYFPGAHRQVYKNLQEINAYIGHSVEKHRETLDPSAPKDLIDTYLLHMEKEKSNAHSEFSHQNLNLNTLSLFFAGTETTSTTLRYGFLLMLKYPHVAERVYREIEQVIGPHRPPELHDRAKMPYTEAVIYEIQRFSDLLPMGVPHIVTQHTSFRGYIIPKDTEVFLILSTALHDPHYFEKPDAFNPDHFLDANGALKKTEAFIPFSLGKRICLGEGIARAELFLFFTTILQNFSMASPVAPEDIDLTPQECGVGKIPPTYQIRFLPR
Assay: biochemical
Type: in vitro ADME
Settings: read-out: IC50, CYP2B6; human liver microsomes; substrate bupropion

[
  {
    "Compound": "C[C@H](O)c1cc(C(=O)N[C@@H](C)Cn2ccc(-c3ccc(C#N)c(Cl)c3)n2)n[nH]1 [(S,S)-darolutamide]",
    "IC50": "> 50 µM"
  },
  {
    "Compound": "CC(=O)c1cc(C(=O)N[C@@H](C)Cn2ccc(-c3ccc(C#N)c(Cl)c3)n2)[nH]n1 [Keto-darolutamide, keto-darolutamide]",
    "IC50": "54.2 µM"
  }
]

// next item, IC50 requested
Ask: Which IC50 is reported with CYP2B6 (Homo sapiens) for this entry: C[C@@H](Cn1ccc(-c2ccc(C#N)c(Cl)c2)n1)NC(=O)c1cc([C@@H](C)O)[nH]n1 [(S,R)-darolutamide] ?
Reply: > 50 µM

From: paper PMC6828636
